All values here come from the supplement of paper PMC10126150.

# System: ATP;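 also: ATP exposure 15 min at 22 °C before imaging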
# PROTOCOL TEXT: switch fluorescence ratio, 500 uM ATP over buffer (Cy3 cluster intensity, sum of 5 cycles each) (fold (ratio)); higher = stronger signal-on switching upon ATP binding; sequences stand for … in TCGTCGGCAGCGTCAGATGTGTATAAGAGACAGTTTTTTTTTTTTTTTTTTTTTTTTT…TC
# TEST SETTINGS: aptamer strand: ATP DNA aptamer (quencher-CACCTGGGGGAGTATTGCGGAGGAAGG + anchor), 100 nM annealed; ATP concentration: 500 uM

QUERY SEQUENCE | switch fluorescence ratio
CAACTGGGGC | 1.06
CTGTGCGACA | 1.06
AAATCGGGTT | 1.15
TGGGTTATAT | 0.979
GGGGATAAGA | 0.985
GATCATTCTT | 1.01
TGGTTTCGTG | 1.01
TTGTACTTGG | 1.04
TCGTAGGGGA | 1.03
GGTTAGATGT | 0.977
TTTCGGTCTG | 1.01
TGGGGGCAGT | 1.12
GGAGAGGACG | 1.07
GTTTATGTGG | 0.981
AAACGGGTTC | 1.01
GGTTATTGCT | 1.02
ATGTTGAAGG | 1.03
GACTATGAAG | 0.994
CATGGGGGGA | 0.994
AGAGGGGTCG | 1.02

###

Collected switch fluorescence ratio values appear next to each entry.
# Tested on: ATP;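 also: ATP exposure 15 min at 22 °C before imaging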
# PROTOCOL TEXT: switch fluorescence ratio, 500 uM ATP over buffer (Cy3 cluster intensity, sum of 5 cycles each) (fold (ratio)); higher = stronger signal-on switching upon ATP binding; sequences stand for … in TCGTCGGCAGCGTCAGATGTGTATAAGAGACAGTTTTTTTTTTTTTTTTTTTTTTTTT…TC
# TEST SETTINGS: aptamer strand: ATP DNA aptamer (quencher-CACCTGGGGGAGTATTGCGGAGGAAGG + anchor), 100 nM annealed; ATP concentration: 500 uM

QUERY SEQUENCE | switch fluorescence ratio
TAAAGGGATG | 0.956
TGTACGAGAA | 1
TTCGAGGAGA | 1.01
TTGTTTGGTT | 0.983
ACGGGATG | 1.04
GGCGTACAAA | 0.985
ATGGGATCTG | 0.999
CGTGGGATAT | 1.01
TGCCTGCATT | 1.02
TAACAGGCGG | 0.991
TTATAAGACT | 1.04
TTTGAATTCG | 1.01
AGAGACGCTT | 1.03
AGTTATTAAT | 1.06
TTTTTTCATG | 0.988
CAGATCACGA | 1.01
GATGGGACAG | 1.01
TTGATTGAGG | 1
AATGATCCAG | 0.983
GTTGTGTCCG | 1.01
ATATAATTTG | 1.04
AAAGATCGGA | 0.983
ATACTCAGTG | 1.07
GTATAATTGT | 0.984
CGAAGTTTGT | 0.98
ATGCCAGGGA | 1.01
CGTTCCCGTG | 0.981
GAAGGCGTTT | 0.978
TCATTCTTTA | 1.01
AAAATATGGT | 1.01
GCATCGTAGA | 1.07
GCCGATGCGG | 0.988
GAGGCCGGAA | 1.07
TAGGAGCTTG | 1
AATGTAGGAC | 1.02
TCGTGCAAGT | 1.05
TCTTGATGGA | 0.96
GCACGTGGTC | 1.04
CCGAAGGGGC | 1.52
TAATTCAGGT | 1
TCGGTTGGTT | 0.967
TTTCGATGGT | 0.959
CAAGCATTTT | 1.01
CAGTAATGTT | 0.994
AACTAGTCAA | 1.02
GATGGGGTAA | 0.997
ATTGGTTTCT | 1.04
TTACTTGGGT | 1.02
TTGGGTTCGG | 0.987
TAAATTTTTC | 1.04
CCCGATTTTT | 0.993
GGGATAGAGG | 0.999
GATGCATGC | 1.22
